Assay Target: T1, TRCW5 antigen (CD3δε-Fc-Avi) (biotinylated (site not stated))
T1 construct: also called recombinant CD3
T1 sequence (chain, as listed by the source mutant limits assumed): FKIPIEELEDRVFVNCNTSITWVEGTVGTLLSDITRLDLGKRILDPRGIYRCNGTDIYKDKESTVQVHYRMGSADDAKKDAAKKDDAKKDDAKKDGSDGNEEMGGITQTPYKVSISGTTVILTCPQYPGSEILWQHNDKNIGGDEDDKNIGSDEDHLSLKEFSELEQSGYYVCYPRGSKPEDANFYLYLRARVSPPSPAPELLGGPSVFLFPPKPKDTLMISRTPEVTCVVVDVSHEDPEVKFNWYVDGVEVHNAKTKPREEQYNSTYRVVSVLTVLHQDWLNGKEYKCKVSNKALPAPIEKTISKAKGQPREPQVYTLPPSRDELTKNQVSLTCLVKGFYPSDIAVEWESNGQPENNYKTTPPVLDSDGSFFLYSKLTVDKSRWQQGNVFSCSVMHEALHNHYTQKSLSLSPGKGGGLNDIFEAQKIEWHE
Procedure Summary: binding after heat
Listed below: % Retained 55° C. values for each entry.
Record the value in %, omitting the unit from your answer.

Please report the recorded % Retained 55° C. for CD3B2089 N106E (scFv) scFv: QVQLVQSGAEVKKPGSSVKVSCKASGYTFTRSTMHWVRQAPGQGLEWMGYINPSSAYTNYAQKFQGRVTLTADKSTSTAYMELSSLRSEDTAVYYCASPQVHYDYEGFPYWGQGTLVTVSSGGSEGKSSGSGSESKSTGGSEIVLTQSPATLSASPGERVTLSCSASSSVSYMNWYQQKPGQAPRRWIYDSSKLASGVPARFSGSGSGRDYTLTISSLEPEDFAVYYCQQWSRNPPTFGGGTKVEIK .
113
